system: RAW-Dual; experiment: NF-kB SEAP reporter activity, fold change vs agonist alone; cytotoxicity flag (confluency mask): not cytotoxic; higher = enhanced NF-kB activity; conditions: agonist: Pam3CSK4 (TLR2/1) 0.1 ug/mL
Over roughly 2,900 compounds, “NF-kB SEAP reporter activity, fold change vs agonist alone” has its median near 0.99; the highest 2% begin near 2.6. The sample as a whole holds a higher share of the highest values than the screen did.
measurement kind: NF-kB SEAP reporter activity
The reply should be a number, written without any unit.

Recorded NF-kB SEAP reporter activity, per entry:
| molecule | assay system | measurement kind | measured value |
| --- | --- | --- | --- |
| Cc1cnc(NC(=O)Nc2cc(Br)c(C)cc2OCC2CNCCO2)cn1 (stereo not drawn) (library stock concentration (final ~1000-fold dilution): 10 mM) | RAW-Dual | NF-kB SEAP reporter activity | 0.818 |
| O=C(O)CC(C(=O)O)N1C(=O)/C(=C2/C(=O)Nc3ccc(Br)cc32)SC1=S (stereo not drawn) (library stock concentration (final ~1000-fold dilution): 10 mM) | RAW-Dual | NF-kB SEAP reporter activity | 1.06 |

The reported value for CC(=O)N1CCC(Nc2cc(C(=O)NCC(O)CN3CCc4ccccc4C3)ncn2)CC1 (stereo not drawn) (library stock concentration (final ~1000-fold dilution): 10 mM) in terms of NF-kB SEAP reporter activity is 1.17

Recorded values, source the supplement of paper PMC10037445.
